test system: T-cell receptor (TCR); assay: small molecules blocking TCR binding to CD3 – biochemical, fluorescence, TAMRA-labeled TCR probe, primary screen (AID 651800); conditions: at 9.4 µM, active compounds read high;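 further: recombinant mutant TCR 2C K166C tagged with TAMRA read by polarization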
The whole screen tested about 360,000 compounds, of which about 1,300 (0.36%) were called active. For the sample, actives were picked, then their nearest neighbours and some compounds at random.
Could you label it YES if measured inhibition is 20% or higher, and NO otherwise?

CN1CCN(/N=C/c2ccc(C#N)cc2)CC1
YES
COc1ccccc1C(=O)NNC(=O)CCN1C(=O)/C(=C\c2ccccc2)SC1=S
YES
CC(C)[C@@H](C)/C=C/[C@@H](C)[C@H]1CC[C@@H]2[C@]1(C)CCC1[C@]23C=C[C@]2(C[C@@H](O)CC[C@]12C)N(c1ccc([N+](=O)[O-])cn1)O3 (some centres not stated)
NO

Ask: Confirm if inhibition reported for the molecule `COc1ccccc1C(=O)Nn1cnnc1` is 20% or above.
Reply: NO

Ask: What about `COC(=O)[C@]12C[C@H](CC(=O)NCc3ccccc3)C(=O)N(CCC3=CCCCC3)C1=C[C@H](C(C)(C)C)O[C@@H]2C` ?
Reply: NO

Ask: What about `NS(=O)(=O)c1ccc(NC(=O)COC(=O)c2c3c(nc4ccccc24)/C(=C\c2ccc4c(c2)OCO4)CCC3)cc1` ?
Reply: YES

Ask: What about O=C(NCC1CCCO1)C(C(=O)c1ccccc1)n1cc(Cl)ccc1=O (configuration not stated) ?
Reply: NO
